- Method notes: MTT cytotoxicity assay in hNPC1L1/MDCKII cells
- Assay type: cell-based
- Setup conditions: dog, MDCKII cells stably expressing human NPC1L1 (hNPC1L1/MDCKII), 72 h, read-out: LC50, hNPC1L1/MDCKII

Molecule: O=C1[C@H](CC[C@H](O)c2ccc(F)cc2)[C@@H](c2ccc(O)cc2)N1c1ccc(F)cc1 [Compound 1, ezetimibe, reference compound]
Unit abbreviation: µM
CC50 at 96 h: 62.3

###

- Method notes: MTT cytotoxicity assay in hNPC1L1/MDCKII cells
- Format: cell-based
- Setup conditions: dog, MDCKII cells stably expressing human NPC1L1 (hNPC1L1/MDCKII), read-out: LC50, hNPC1L1/MDCKII

Compound: O=C1[C@H](NC[C@H](O)c2ccc(F)cc2)[C@@H](c2ccc(O)cc2)N1c1ccc(F)cc1
CC50 at 72 h: > 100 µM

Compound: O=C1[C@H](NC[C@@H](O)c2ccc(F)cc2)[C@@H](c2ccc(O)cc2)N1c1ccc(F)cc1
CC50 at 72 h: > 100 µM

Compound: O=C1[C@H](NCC(O)c2ccc(F)cc2)[C@@H](c2ccc(O)cc2)N1c1ccc(F)cc1 (mixture of isomers)
CC50 at 72 h: > 100 µM
